Origin of measurements: patent US5153181A

Experiment: LD50 taken from published literature
Conditions: in vivo; calculated from MW
Observed Property: LD50 (mg/kg)
Just the number in mg/kg, nothing appended.

LD50 reading for "O=C(O)P(=O)(O)O" : 500
